- system name: N-His-Tb-BIR3(241-356, XIAP) (Homo sapiens, UniProt P98170)
- Sequence (P98170 241-356): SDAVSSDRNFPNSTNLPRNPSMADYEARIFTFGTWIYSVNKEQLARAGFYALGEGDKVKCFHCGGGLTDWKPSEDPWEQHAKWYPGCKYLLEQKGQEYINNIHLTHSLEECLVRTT
- assay method text: XIAP-BIR3 SMAC Peptide Fluorescence Polarization Assay (FPA)
- Format: binding
Let's look at some compounds and their measured IC50.

In the examples that follow, each entry is paired with its recorded IC50.
| compound | system name | test value |
| --- | --- | --- |
| CN[C@@H](C)C(=O)N[C@H](C(=O)N1C[C@@H]2C[C@H]1C(=O)N[C@@H](Cc1ccc3ccccc3c1)C(=O)N[C@H](C(=O)O)Cc1ccc(cc1)OCc1cn(nn1)[C@H]1C[C@@H](C(=O)N[C@@H](Cc3ccc4ccccc4c3)C(=O)N[C@H](C(=O)NS(C)(=O)=O)Cc3ccc(cc3)OCc3cn2nn3)N(C(=O)[C@@H](NC(=O)[C@H](C)NC)C(C)(C)C)C1)C(C)(C)C [Compound 1002] | N-His-Tb-BIR3(241-356, XIAP) (Homo sapiens, UniProt P98170) | < 50 nM |
| CN[C@@H](C)C(=O)N[C@H](C(=O)N1C[C@@H]2C[C@H]1C(=O)N[C@@H](Cc1cccc(C(F)(F)F)c1)C(=O)N[C@H](C(=O)O)Cc1ccc(cc1)OCc1cn(nn1)[C@H]1C[C@@H](C(=O)N[C@@H](Cc3cccc(C(F)(F)F)c3)C(=O)N[C@H](C(=O)O)Cc3ccc(cc3)OCc3cn2nn3)N(C(=O)[C@@H](NC(=O)[C@H](C)NC)C2CCCCC2)C1)C1CCCCC1 [Compound 130] | N-His-Tb-BIR3(241-356, XIAP) (Homo sapiens, UniProt P98170) | < 50 nM |

Input: Requested field: IC50. Item: CN[C@@H](C)C(=O)N[C@H](C(=O)N1C[C@@H]2C[C@H]1C(=O)N[C@@H](Cc1ccc3ccccc3c1)C(=O)N[C@H](C(=O)O)Cc1ccc(cc1)OCc1cn(nn1)[C@H]1C[C@@H](C(=O)N[C@@H](Cc3ccc4ccccc4c3)C(=O)N[C@H](C(=O)NS(=O)(=O)C3CC3)Cc3ccc(cc3)OCc3cn2nn3)N(C(=O)[C@@H](NC(=O)[C@H](C)NC)C(C)(C)C)C1)C(C)(C)C [Compound 147]
Output: < 50 nM

====

Let's look at some compounds and their measured pIC50.
- system name: His-BIR2-3 (125-356, C202A/C213G, XIAP) (Homo sapiens, UniProt P98170, C202A/C213G)
- Construct: additions of His-BIR2-3 (125-356, C202A/C213G, XIAP), fluorescein labeled dimeric SMAC peptide
- Sequence (P98170 125-356 C202A/C213G): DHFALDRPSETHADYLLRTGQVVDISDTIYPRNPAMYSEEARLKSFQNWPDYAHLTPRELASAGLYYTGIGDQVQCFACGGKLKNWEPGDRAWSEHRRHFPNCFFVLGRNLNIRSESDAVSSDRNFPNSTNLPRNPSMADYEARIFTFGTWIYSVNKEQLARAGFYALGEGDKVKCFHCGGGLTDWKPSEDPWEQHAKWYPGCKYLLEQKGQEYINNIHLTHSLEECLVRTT
- assay method text: XIAP-BIR2-3 Dimeric SMAC Peptide Homogeneous Time Resolved Fluorescence (HTRF) Assay
- condition info: XIAP BIR2-3, HTRF, Table 4
pIC50: −log10 of the molar value.

| compound | readout label | test value |
| --- | --- | --- |
| CN[C@@H](C)C(=O)N[C@H](C(=O)N1C[C@@H]2C[C@H]1C(=O)N[C@@H](Cc1ccc3ccccc3c1)C(=O)N[C@H](C(=O)O)Cc1ccc(cc1)OCc1cn(nn1)[C@H]1C[C@@H](C(=O)N[C@@H](Cc3ccc4ccccc4c3)C(=O)N[C@H](c3nnn[nH]3)Cc3ccc(cc3)OCc3cn2nn3)N(C(=O)[C@@H](NC(=O)[C@H](C)NC)C(C)(C)C)C1)C(C)(C)C | pIC50 | ≥ 9.00 |
| CN[C@@H](C)C(=O)NC(C(=O)N1C[C@@H]2C[C@H]1C(=O)N[C@@H](Cc1ccc3ccccc3c1)C(=O)N[C@H](c1nc(=O)o[nH]1)Cc1ccc(cc1)OCc1cn(nn1)[C@H]1C[C@@H](C(=O)N[C@@H](Cc3ccc4ccccc4c3)C(=O)N[C@H](C(=O)O)Cc3ccc(cc3)OCc3cn2nn3)N(C(=O)[C@@H](NC(=O)[C@H](C)NC)C(C)(C)C)C1)C(C)(C)C (stereo partly drawn) | pIC50 | ≥ 9.00 |

Now take the following compound into account.
Input: Requested field: pIC50. Item: CN[C@@H](C)C(=O)N[C@H](C(=O)N1C[C@@H]2C[C@H]1C(=O)N[C@@H](Cc1ccc3ccccc3c1)C(=O)N[C@H](C(=O)O)Cc1ccc(cc1)OCc1cn(nn1)[C@H]1C[C@@H](C(=O)N[C@@H](Cc3ccc4ccccc4c3)C(=O)N[C@H](C(=O)NCc3nnn[nH]3)Cc3ccc(cc3)OCc3cn2nn3)N(C(=O)[C@@H](NC(=O)[C@H](C)NC)C(C)(C)C)C1)C(C)(C)C
Output: 8.00 to 9.00
